List of DR1 binding data values.
molecular target: DRB1*0101 (DR1) (Homo sapiens, UniProt P01903+P01911, A100R/D57E/F55L/F60I/F76Y/I96L/L162R/M171V/P40L/Q125E/R42F/V115G/Y59C); experiment: HLA class II peptide binding assay, purified HLA; conditions: Table XIX, DR supermotif peptides; unit not given
# answer = number (no unit)

Below, each entry is followed by its recorded DR1 binding data result.
CC[C@H](C)[C@H](NC(=O)[C@H](CCSC)NC(=O)[C@H](Cc1ccc(O)cc1)NC(=O)[C@@H](NC(=O)[C@H](CC(=O)O)NC(=O)[C@@H](NC(=O)[C@@H](NC(=O)[C@H](CS)NC(=O)[C@@H](NC(=O)[C@@H]1CCCN1C(=O)[C@@H]1CCCN1C(=O)[C@@H](N)CCC(N)=O)[C@@H](C)CC)[C@@H](C)O)[C@@H](C)CC)C(C)C)C(=O)N[C@@H](CCSC)C(=O)N[C@H](C(=O)N[C@@H](CCCCN)C(=O)O)C(C)C : 0.0670
CC[C@H](C)[C@H](NC(=O)[C@H](C)NC(=O)[C@@H](NC(=O)[C@@H]1CCCN1C(=O)[C@@H](NC(=O)[C@H](CCCCN)NC(=O)[C@@H](NC(=O)[C@H](CC(N)=O)NC(=O)[C@H](CCC(=O)O)NC(=O)CN)C(C)C)[C@@H](C)CC)C(C)C)C(=O)N[C@@H](CCCCN)C(=O)N[C@H](C(=O)N[C@@H](CC(C)C)C(=O)N[C@@H](CCCNC(=N)N)C(=O)N[C@@H](CCC(=O)O)C(=O)O)C(C)C : 0.0630
CC[C@H](C)[C@H](NC(=O)CNC(=O)[C@H](CC(=O)O)NC(=O)[C@H](Cc1ccc(O)cc1)NC(=O)[C@@H]1CCCN1C(=O)[C@H](CCCCN)NC(=O)[C@H](C)NC(=O)CNC(=O)[C@H](Cc1ccccc1)NC(=O)[C@@H](NC(=O)[C@H](CCSC)NC(=O)[C@H](CC(C)C)NC(=O)[C@H](CCC(=O)O)NC(=O)[C@H](Cc1c[nH]c2ccccc12)NC(=O)[C@@H](N)C(C)C)[C@@H](C)O)C(=O)O : 0.0870
CC[C@H](C)[C@H](NC(=O)[C@H](CCCCN)NC(=O)[C@H](CCCCN)NC(=O)[C@@H](N)CS)C(=O)N[C@@H](Cc1ccccc1)C(=O)NCC(=O)N[C@@H](CO)C(=O)N[C@@H](CC(C)C)C(=O)N[C@@H](C)C(=O)N[C@@H](Cc1ccccc1)C(=O)N[C@@H](CC(C)C)C(=O)N1CCC[C@H]1C(=O)N[C@@H](CCC(=O)O)C(=O)N[C@@H](CO)C(=O)N[C@@H](Cc1ccccc1)C(=O)O : 0.2400
CC[C@H](C)[C@H](NC(=O)[C@H](CC(C)C)NC(=O)[C@H](C)NC(=O)[C@H](CC(C)C)NC(=O)CNC(=O)[C@H](CO)NC(=O)CNC(=O)[C@H](CC(C)C)NC(=O)[C@H](CCC(=O)O)NC(=O)[C@H](CCCNC(=N)N)NC(=O)[C@@H](N)CC(C)C)C(=O)N[C@@H](Cc1c[nH]cn1)C(=O)N[C@@H](Cc1c[nH]cn1)C(=O)N[C@@H](CC(N)=O)C(=O)N[C@H](C(=O)O)[C@@H](C)O : 0.0310

Entry `CSCC[C@H](NC(=O)[C@H](CC(C)C)NC(=O)[C@H](CCC(N)=O)NC(=O)[C@@H](NC(=O)[C@@H](NC(=O)[C@H](CC(C)C)NC(=O)[C@H](CCC(N)=O)NC(=O)[C@@H](NC(=O)[C@@H](N)[C@@H](C)O)C(C)C)C(C)C)[C@@H](C)O)C(=O)N1CCC[C@H]1C(=O)N[C@@H](Cc1ccc(O)cc1)C(=O)NCC(=O)N[C@@H](CS)C(=O)N[C@@H](CC(C)C)C(=O)N[C@@H](CC(C)C)C(=O)O` , DR1 binding data reported as 0.2300

Record summary for `CC[C@H](C)[C@H](NC(=O)[C@H](CCC(=O)O)NC(=O)[C@@H](N)CCCCN)C(=O)N[C@@H](CC(C)C)C(=O)N[C@@H](CC(=O)O)C(=O)N[C@@H](CCC(=O)O)C(=O)N[C@@H](C)C(=O)N[C@@H](Cc1ccc(O)cc1)C(=O)N[C@H](C(=O)N[C@@H](CCSC)C(=O)N[C@@H](C)C(=O)NCC(=O)N[C@H](C(=O)NCC(=O)N[C@@H](CO)C(=O)O)C(C)C)C(C)C` : reported DR1 binding data = 0.0036
